- STUDY SYSTEM: DLL3 endogenously expressed on NCI-H82 cells (UniProt Q9NYJ7)
- Sequence (Q9NYJ7 27-618): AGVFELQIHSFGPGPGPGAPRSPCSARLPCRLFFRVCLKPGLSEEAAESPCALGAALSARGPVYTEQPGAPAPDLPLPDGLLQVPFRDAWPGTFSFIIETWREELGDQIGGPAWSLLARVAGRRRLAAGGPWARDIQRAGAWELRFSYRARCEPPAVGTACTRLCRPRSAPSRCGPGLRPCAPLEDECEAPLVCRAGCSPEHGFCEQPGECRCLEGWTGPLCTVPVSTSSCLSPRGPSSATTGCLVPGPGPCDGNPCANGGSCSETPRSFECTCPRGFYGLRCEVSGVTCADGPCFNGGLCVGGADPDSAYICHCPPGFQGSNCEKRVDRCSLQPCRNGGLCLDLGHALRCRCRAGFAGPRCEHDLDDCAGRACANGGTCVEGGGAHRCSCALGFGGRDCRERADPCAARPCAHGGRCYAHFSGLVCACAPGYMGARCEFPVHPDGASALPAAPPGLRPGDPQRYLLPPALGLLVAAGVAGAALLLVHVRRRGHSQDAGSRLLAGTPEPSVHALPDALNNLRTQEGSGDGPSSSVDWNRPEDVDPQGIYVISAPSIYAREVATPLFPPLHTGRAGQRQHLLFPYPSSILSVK
- ASSAY PROCEDURE: FACS on NCI-H82 cells; antibody 0.0064 nM
READOUT: MFI
Just the number.

Example entries begin here.
Hab009VL3aVH1-hFc (scFv, part only; not given: VL-VH linker and human IgG1 Fc, V domains shown, not shown: another chain or arm of the molecule; a dimerising Fc or GST; small tags and cut ends) VL: DIVMTQSPLSLPVTPGEPASISCRASQTISDYLHWYLQKSHQSPQLLIKYASQSISGVPDRFSGSGSGTDFTLKISRVEAEDVGVYYCQQGHSFPLTFGQGTKLEIK VH: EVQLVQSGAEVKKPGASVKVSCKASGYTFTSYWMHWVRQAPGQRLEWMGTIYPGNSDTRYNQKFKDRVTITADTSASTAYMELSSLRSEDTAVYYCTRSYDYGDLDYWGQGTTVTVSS	179
Hab014VL3VH1-hFc (scFv, part only; not given: VL-VH linker and human IgG1 Fc, V domains shown, not shown: another chain or arm of the molecule; a dimerising Fc or GST; small tags and cut ends) VL: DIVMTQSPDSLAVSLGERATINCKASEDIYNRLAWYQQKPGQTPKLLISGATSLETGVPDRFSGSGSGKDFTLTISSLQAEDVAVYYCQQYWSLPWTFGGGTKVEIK VH: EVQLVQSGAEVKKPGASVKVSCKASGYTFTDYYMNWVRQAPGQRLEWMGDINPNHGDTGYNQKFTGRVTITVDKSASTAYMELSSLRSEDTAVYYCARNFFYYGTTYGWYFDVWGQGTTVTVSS	125
Hab015VL4VH1b-hFc (scFv, part only; not given: VL-VH linker and human IgG1 Fc, V domains shown, not shown: another chain or arm of the molecule; a dimerising Fc or GST; small tags and cut ends) VL: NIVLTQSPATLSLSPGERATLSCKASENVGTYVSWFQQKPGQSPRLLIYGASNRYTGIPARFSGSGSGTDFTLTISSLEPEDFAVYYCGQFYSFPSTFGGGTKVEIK VH: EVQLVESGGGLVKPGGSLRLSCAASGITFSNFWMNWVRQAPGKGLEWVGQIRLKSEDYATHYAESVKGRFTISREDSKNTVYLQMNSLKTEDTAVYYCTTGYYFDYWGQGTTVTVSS	131
Hab015VL4VH6a-hFc (scFv, part only; not given: scFv linker and human IgG1 Fc, V domains shown, not shown: another chain or arm of the molecule; a dimerising Fc or GST; small tags and cut ends) VL: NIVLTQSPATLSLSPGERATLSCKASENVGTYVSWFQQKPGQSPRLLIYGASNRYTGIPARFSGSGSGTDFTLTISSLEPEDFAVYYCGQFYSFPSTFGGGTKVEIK VH: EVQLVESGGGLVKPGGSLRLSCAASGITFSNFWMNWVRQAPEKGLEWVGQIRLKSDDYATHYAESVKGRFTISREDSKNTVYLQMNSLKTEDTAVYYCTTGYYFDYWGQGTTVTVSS	133

Shift focus to the following entry.
# input binder: mab008 scFv-hFc (Fc fusion, part only; not given: linker and human IgG1 Fc, not shown: a dimerising Fc or GST) chain, part: DIVMTQSQKFMSTSVGDRVSITCKASQNVGTAVAWYQQKPGQSPKLLIFSASIRYTGVPDRFTGSGSGTDFTLTISNMQSEDLADYFCQQYSSSPYTFGGGTKLEIKEVQLQQSGPVLVKPGASVKMSCKASGYTFTDYYMNWVKRSHGKSLEWIGIINPYNGGTSYNQKFRGKATLTVDKSSNTAYMELNSLTSEDSAVYYCSRYDYDYDVEGAMDYWGQGTSVTVSS ; wanted: its MFI
94
